# TEST PROTOCOL: pKa measurements of individual IAJD molecules by titration
# Type: physicochemical
# APPLIED CONDITIONS: ethanol saturated with NaCl, titrated with 0.1 M aqueous HCl; Table 15; individual IAJD molecule, titration
Record form. Attribute: pKa. Fill in for each entry.
No unit in the answer, only the number.

Task: Recorded pKa for CCCCCCCCCCCCCCCCOc1cc(COC(=O)CCCN2CCN(C)CC2)cc(OCCCCCCCCCCC)c1 , please?
Output: 6.24

Task: Then what about the compound CCCCCCCCCCCCOc1cc(CNC(=O)CCCN2CCN(C)CC2)cc(OCCCCCCCCCCCC)c1 ?
Output: 6.44

Task: Then what about the compound CCCCCCCCCCCCCCOc1cc(COC(=O)CCCN2CCN(C)CC2)cc(OCCCCCCCCCCC)c1 ?
Output: 6.5

Task: Then what about the compound CCCCC(CC)COc1cc(COC(=O)CCCN2CCN(CCO)CC2)cc(OCC(CC)CCCC)c1 (stereo not shown) ?
Output: 6.49

Task: Then what about the compound CCCCCCCCCCCCCCCCOc1cc(COC(=O)CCCN2CCN(C)CC2)cc(OCCCCCCCCCCCCCCCC)c1 ?
Output: 6.22

Task: Then what about the compound CCCCCCCCCCCCOCC(COCCCCCCCCCCCC)(COCCCCCCCCCCCC)COC(=O)CCCN1CCN(C)CC1 ?
Output: 6.18

Task: Then what about the compound CCCCCCCCCCCCOc1cc(COC(=O)CCCN(C)C)cc(OCCCCCCCCCCCC)c1 ?
Output: 7.06

Task: Then what about the compound CCCCC(CC)COc1cc(COC(=O)CCCN2CCN(C)CC2)cc(OCC(CC)CCCC)c1OCC(CC)CCCC (stereo not shown) ?
Output: 6.32

Task: Then what about the compound CCCCC(CC)COc1cc(COC(=O)CCCN2CCN(C)CC2)cc(OCC(CC)CCCC)c1 (stereo not shown) ?
Output: 6.28

Task: Then what about the compound CCCCCCCCCCCCOCC(COCCCCCCCCCCCC)(COCCCCCCCCCCCC)COC(=O)CCCN1CCN(CCO)CC1 ?
Output: 6.3

Task: Then what about the compound CCCCC(CC)COc1cc(COC(=O)CCCN2CCN(CCO)CC2)cc(OCC(CC)CCCC)c1OCC(CC)CCCC (stereo not shown) ?
Output: 6.46

Task: Then what about the compound CCCCCCCCCCCCOc1cc(COC(=O)CCCN2CCN(C)CC2)cc(OCCCCCCCCCCCC)c1 ?
Output: 6.37

Task: Then what about the compound CCCCCCCCCCOc1cc(COC(=O)CCCN2CCN(CCO)CC2)cc(OCCCCCCCCCC)c1 ?
Output: 6.48

Task: Then what about the compound CCCCCCCOC(=O)CCCCOc1cc(COC(=O)CCCN2CCN(C)CC2)cc(OCCCCC(=O)OCCCCCCC)c1 ?
Output: 6.21

Task: Then what about the compound CCCCCCCCCCCCOc1cc(COC(=O)CCCN2CCN(C)CC2)cc(OCCCCCCCCCCCC)c1OCCCCCCCCCCCC ?
Output: 6.25

Task: Then what about the compound CCCCCCCCOc1cc(COC(=O)CCCN2CCN(C)CC2)cc(OCCCCCCCC)c1 ?
Output: 6.28
